# measured-target: human AT1R (Homo sapiens, UniProt P30556)
# procedure-text: beta-arrestin2 recruitment assay (PathHunter), human AT1R
# Type: cell-based
# protocol-conditions: 1 h, read-out: Span (relative to hAngII)
Where a SMILES comes first, the peptide text is derived from it. [ ]: non-standard residue; d: D form. The star is where a group is joined. Ac6c = NC1(C(=O)O)CCCCC1; Ac5c = NC1(C(=O)O)CCCC1; NHiPr = CC(C)N*; Sar = CNCC(=O)O
Parameter Emax: see the listing below.

Examples from the recorded data:
CNCC(=O)N[C@@H](CCCNC(=N)N)C(=O)N[C@H](C(=O)N[C@@H](Cc1ccc(O)cc1)C(=O)NC1(C(=O)N[C@@H](Cc2c[nH]cn2)C(=O)N2CCC[C@H]2C(=O)NC(C)C)CCCCC1)C(C)C [SEQ ID NO: 46, Sar-Arg-Val-Tyr-cyHex-His-Pro-NH-i-Pr] (H-[Sar]RVY[Ac6c]HP-NHiPr): < 101%
CC[C@H](C)[C@H](NC(=O)[C@@H]1CCCN1C(=O)[C@H](Cc1c[nH]cn1)NC(=O)[C@@H]1CCCN1C(=O)[C@H](Cc1ccc(O)cc1)NC(=O)[C@@H](NC(=O)[C@H](CCCNC(=N)N)NC(=O)CNC)C(C)C)C(=O)O [SEQ ID NO: 4, Sar-Arg-Val-Tyr-Pro-His-Pro-Ile] (H-[Sar]RVYPHPI-OH; N-terminus and C-terminus assumed): < 101%

Consider the record given below.
Challenge: Which measured Emax value corresponds to CNCC(=O)N[C@@H](CCCNC(=N)N)C(=O)N[C@H](C(=O)N[C@@H](Cc1ccc(O)cc1)C(=O)NC1(C(=O)N[C@@H](Cc2c[nH]cn2)C(=O)N2CCC[C@H]2C(=O)N[C@@H](CCSC)C(=O)O)CCCC1)C(C)C [SEQ ID NO: 23, Sar-Arg-Val-Tyr-cyPen-His-Pro-Met] (H-[Sar]RVY[Ac5c]HPM-OH) ?
Response given: < 101%

---

# measured-target: human AT1R (Homo sapiens, UniProt P30556)
# Sequence (P30556 1-359): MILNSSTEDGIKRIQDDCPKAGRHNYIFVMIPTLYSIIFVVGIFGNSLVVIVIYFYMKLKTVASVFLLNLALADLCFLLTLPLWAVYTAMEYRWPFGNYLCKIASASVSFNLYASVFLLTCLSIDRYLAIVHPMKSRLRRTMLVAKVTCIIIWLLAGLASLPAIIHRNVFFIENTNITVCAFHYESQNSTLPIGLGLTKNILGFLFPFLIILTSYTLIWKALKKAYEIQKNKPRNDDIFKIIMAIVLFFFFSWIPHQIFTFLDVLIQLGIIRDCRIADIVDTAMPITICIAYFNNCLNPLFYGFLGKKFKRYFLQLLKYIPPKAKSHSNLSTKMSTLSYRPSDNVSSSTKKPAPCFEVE
# procedure-text: beta-arrestin2 recruitment assay (PathHunter), human AT1R
# Format: cell-based
# protocol-conditions: read-out: EC50
Where a SMILES comes first, the peptide text is derived from it. [ ]: non-standard residue; d: D form. Ac6c = NC1(C(=O)O)CCCCC1; Ac5c = NC1(C(=O)O)CCCC1; Aib = CC(C)(N)C(=O)O; Sar = CNCC(=O)O
measurement-kind: EC50

Examples from the recorded data:
CNCC(=O)N[C@@H](CCCNC(=N)N)C(=O)N[C@H](C(=O)N[C@@H](Cc1ccc(O)cc1)C(=O)NC1(C(=O)N[C@@H](Cc2c[nH]cn2)C(=O)N2CCC[C@H]2C(=O)N2CCC[C@H]2C(=O)O)CCCCC1)C(C)C [SEQ ID NO: 39, Sar-Arg-Val-Tyr-cyHex-His-Pro-Pro] (H-[Sar]RVY[Ac6c]HPP-OH): > 3.2 nM
CNCC(=O)N[C@@H](CCCNC(=N)N)C(=O)N[C@H](C(=O)N[C@@H](Cc1ccc(O)cc1)C(=O)NC1(C(=O)N[C@@H](Cc2c[nH]cn2)C(=O)N2CCC[C@H]2C(=O)N[C@@H](CCC(N)=O)C(=O)O)CCCCC1)C(C)C [SEQ ID NO: 38, Sar-Arg-Val-Tyr-cyHex-His-Pro-Gln] (H-[Sar]RVY[Ac6c]HPQ-OH): > 3.2 nM
CNCC(=O)N[C@@H](CCCNC(=N)N)C(=O)N[C@H](C(=O)N[C@@H](Cc1ccc(O)cc1)C(=O)NC(C)(C)C(=O)N[C@@H](Cc1c[nH]cn1)C(=O)N1CCC[C@H]1C(=O)N[C@H](C(=O)O)[C@@H](C)O)C(C)C [SEQ ID NO: 40, Sar-Arg-Val-Tyr-AA01-His-Pro-Thr] (H-[Sar]RVY[Aib]HPT-OH): > 3.2 nM
CNCC(=O)N[C@@H](CCCNC(=N)N)C(=O)N[C@H](C(=O)N[C@@H](Cc1ccc(O)cc1)C(=O)NC1(C(=O)N[C@@H](Cc2c[nH]cn2)C(=O)N2CCC[C@H]2C(=O)N[C@H](C(=O)O)C(C)C)CCCCC1)C(C)C [SEQ ID NO: 13, Sar-Arg-Val-Tyr-cyHex-His-Pro-Val] (H-[Sar]RVY[Ac6c]HPV-OH): > 3.2 nM
CNCC(=O)N[C@@H](CCCNC(=N)N)C(=O)N[C@H](C(=O)N[C@@H](Cc1ccc(O)cc1)C(=O)NC1(C(=O)N[C@@H](Cc2c[nH]cn2)C(=O)N2CCC[C@H]2C(=O)N[C@H](C(=O)O)[C@@H](C)O)CCCC1)C(C)C [SEQ ID NO: 21, Sar-Arg-Val-Tyr-cyPen-His-Pro-Thr] (H-[Sar]RVY[Ac5c]HPT-OH): > 3.2 nM

Challenge: Which measured EC50 value corresponds to CNCC(=O)N[C@@H](CCCNC(=N)N)C(=O)N[C@H](C(=O)N[C@@H](Cc1ccc(O)cc1)C(=O)NC(C)(C)C(=O)N[C@@H](Cc1c[nH]cn1)C(=O)N1CCC[C@H]1C(=O)N[C@H](C(=O)O)C(C)C)C(C)C [SEQ ID NO: 33, Sar-Arg-Val-Tyr-AA01-His-Pro-Val] (H-[Sar]RVY[Aib]HPV-OH) ?
Response given: > 3.2 nM

---

# measured-target: human AT1R (Homo sapiens, UniProt P30556)
# procedure-text: beta-arrestin2 recruitment assay (PathHunter), human AT1R
# Format: cell-based
# protocol-conditions: read-out: EC50
Where a SMILES comes first, the peptide text is derived from it. [ ]: non-standard residue; d: D form. Tle = CC(C)(C)[C@H](N)C(=O)O; Ac6c = NC1(C(=O)O)CCCCC1; Ac5c = NC1(C(=O)O)CCCC1; Sar = CNCC(=O)O
Parameter EC50: see the listing below.

CNCC(=O)N[C@@H](CCCNC(=N)N)C(=O)N[C@H](C(=O)N[C@@H](Cc1ccc(O)cc1)C(=O)NC1(C(=O)N[C@@H](Cc2c[nH]cn2)C(=O)N2CCC[C@H]2C(=O)N[C@@H](CCSC)C(=O)O)CCCC1)C(C)C [SEQ ID NO: 23, Sar-Arg-Val-Tyr-cyPen-His-Pro-Met] (H-[Sar]RVY[Ac5c]HPM-OH): > 3.2 nM
CNCC(=O)N[C@@H](CCCNC(=N)N)C(=O)N[C@H](C(=O)N[C@@H](Cc1ccc(O)cc1)C(=O)NC1(C(=O)N[C@@H](Cc2c[nH]cn2)C(=O)N2CCC[C@H]2C(=O)N[C@H](C(=O)O)C(C)C)CCCC1)C(C)C [SEQ ID NO: 20, Sar-Arg-Val-Tyr-cyPen-His-Pro-Val] (H-[Sar]RVY[Ac5c]HPV-OH): > 3.2 nM

Consider the record given below.
Challenge: Which measured EC50 value corresponds to CNCC(=O)N[C@@H](CCCNC(=N)N)C(=O)N[C@H](C(=O)N[C@@H](Cc1ccc(O)cc1)C(=O)NC1(C(=O)N[C@@H](Cc2c[nH]cn2)C(=O)N2CCC[C@H]2C(=O)N[C@H](C(=O)O)C(C)(C)C)CCCCC1)C(C)C [SEQ ID NO: 56, Sar-Arg-Val-Tyr-cyHex-His-Pro-AA02] (H-[Sar]RVY[Ac6c]HP[Tle]-OH) ?
Response given: > 3.2 nM

---

# measured-target: rat AT1aR (Rattus norvegicus)
# Sequence (P25095 whole entry): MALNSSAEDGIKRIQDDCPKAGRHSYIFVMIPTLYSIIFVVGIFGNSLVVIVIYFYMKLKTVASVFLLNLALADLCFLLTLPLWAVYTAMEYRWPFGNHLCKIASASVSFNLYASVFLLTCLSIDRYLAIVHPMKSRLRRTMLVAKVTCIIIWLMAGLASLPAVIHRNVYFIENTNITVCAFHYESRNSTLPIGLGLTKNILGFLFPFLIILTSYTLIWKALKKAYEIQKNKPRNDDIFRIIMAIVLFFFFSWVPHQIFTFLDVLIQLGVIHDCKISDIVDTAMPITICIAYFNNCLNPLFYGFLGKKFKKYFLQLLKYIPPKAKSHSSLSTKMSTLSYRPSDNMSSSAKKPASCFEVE
# procedure-text: beta-arrestin2 recruitment assay (PathHunter), rat AT1aR
# Assay type: cell-based
# protocol-conditions: read-out: EC50
pEC50: −log10 of the molar value. Where a SMILES comes first, the peptide text is derived from it. [ ]: non-standard residue; d: D form. The star is where a group is joined. Ac6c = NC1(C(=O)O)CCCCC1; Ac5c = NC1(C(=O)O)CCCC1; NHiPr = CC(C)N*; Sar = CNCC(=O)O
measurement-kind: pEC50

Examples from the recorded data:
CNCC(=O)N[C@@H](CCCNC(=N)N)C(=O)N[C@H](C(=O)N[C@@H](Cc1ccc(O)cc1)C(=O)NC1(C(=O)N[C@@H](Cc2c[nH]cn2)C(=O)N2CCC[C@H]2C(=O)N[C@@H](CCC(=O)O)C(=O)O)CCCCC1)C(C)C [SEQ ID NO: 43, Sar-Arg-Val-Tyr-cyHex-His-Pro-Glu] (H-[Sar]RVY[Ac6c]HPE-OH): < 8.49
CNCC(=O)N[C@@H](CCCNC(=N)N)C(=O)N[C@H](C(=O)N[C@@H](Cc1ccc(O)cc1)C(=O)NC1(C(=O)N[C@@H](Cc2c[nH]cn2)C(=O)N2CCC[C@H]2C(=O)N[C@@H](Cc2ccccc2)C(=O)O)CCCC1)C(C)C [SEQ ID NO: 24, Sar-Arg-Val-Tyr-cyPen-His-Pro-Phe] (H-[Sar]RVY[Ac5c]HPF-OH): < 8.49

Challenge: Record CNCC(=O)N[C@@H](CCCNC(=N)N)C(=O)N[C@H](C(=O)N[C@@H](Cc1ccc(O)cc1)C(=O)NC1(C(=O)N[C@@H](Cc2c[nH]cn2)C(=O)N2CCC[C@H]2C(=O)NC(C)C)CCCCC1)C(C)C [SEQ ID NO: 46, Sar-Arg-Val-Tyr-cyHex-His-Pro-NH-i-Pr] (H-[Sar]RVY[Ac6c]HP-NHiPr) : what is its pEC50 with rat AT1aR (Rattus norvegicus)?
Response given: < 8.49
